Measured GI50 values are reported for all entries that follow.
System: H929 human cancer cell lines
Assay: Cellular viability / proliferation (Cell TiterGlo, 72 h)
Type: cell-based
Conditions: Homo sapiens, NCI-H929, 72 h, read-out: GI50 on cellular proliferation of H929 human cancer cell lines, H929 cells, 72 h, Cell TiterGlo, 10% FBS
Number only, in µM; omit the unit.

{"chemical-structure": "Cc1cc(OCCCc2c3n(c4c(-c5c(C)nn(C)c5C)c(Cl)ccc24)[C@H](C)CN(c2cn(C)c4ccc(C(=O)N(C)Cc5cccnc5)cc24)C3=O)cc(C)c1Cl", "GI50, µM": 2.4}
{"chemical-structure": "Cc1cc(OCCCc2c3n(c4c(-c5c(C)nn(C)c5C)c(Cl)ccc24)[C@H](C)CN(c2cn(C)c4cc(-c5nn[nH]n5)ccc24)C3=O)cc(C)c1Cl", "GI50, µM": 1.1}
{"chemical-structure": "COc1cc(N2C[C@@H](C)n3c(c(CCCOc4cc(C)c(Cl)c(C)c4)c4ccc(Cl)c(-c5c(C)nn(C)c5C)c43)C2=O)c2c(c1)cc(C(=O)O)n2C", "GI50, µM": 0.23}
{"chemical-structure": "Cc1cc(OCCCc2c3n(c4c(-c5c(C)nn(C)c5C)c(Cl)ccc24)[C@H](C)CN(c2cc4c(C(=O)O)cccc4n2C)C3=O)cc(C)c1Cl", "GI50, µM": 2.6}
{"chemical-structure": "Cc1cc(OCCCc2c3n(c4c(-c5c(C)nn(C)c5C)c(Cl)ccc24)[C@H](C)CN(c2cn(C)c4ccc(-c5ccccn5)cc24)C3=O)cc(C)c1Cl", "GI50, µM": 1.5}

Query Cc1cc(OCCCc2c3n(c4c(-c5c(C)nn(C)c5C)c(Cl)ccc24)[C@H](C)CN(c2cccc4cc(C(=O)O)n(Cc5cnn(C)n5)c24)C3=O)cc(C)c1Cl yields GI50 of 0.56

GET /value?item= Cc1cc(OCCCc2c3n(c4c(-c5c(C)nn(C)c5C)c(Cl)ccc24)[C@H](C)CN(c2cn(C[C@H]4CCCN4C)c4ccc(C(=O)O)cc24)C3=O)cc(C)c1Cl &field=GI50 returns 0.32

Value of measured GI50 for the entry COc1ccc(N2C[C@@H](C)n3c(c(CCCOc4cc(C)c(Cl)c(C)c4)c4ccc(Cl)c(-c5c(C)nn(C)c5C)c43)C2=O)c2c1cc(C(=O)O)n2Cc1cc(C)ccn1 : 0.22

---

Molecular target: Mcl-1 (Homo sapiens (Human), UniProt Q07820)
Sequence (Q07820 172-327): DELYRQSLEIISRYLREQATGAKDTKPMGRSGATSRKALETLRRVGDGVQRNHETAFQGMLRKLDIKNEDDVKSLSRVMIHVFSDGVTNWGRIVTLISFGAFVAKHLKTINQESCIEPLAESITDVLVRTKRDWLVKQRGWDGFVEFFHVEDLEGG
Test: Fluorescence polarization anisotropy (FPA) competition assay, FITC-Bak or FITC-Bim BH3 peptide
Assay type: binding
Conditions: read-out: Ki for Inhibition of Mcl-1 by FPA assay
reported-endpoint: pKi
Scale: negative log10 of molar concentration, which is what pKi denotes.

{"compound": "Cc1cc(OCCCc2c3n(c4c(-c5c(C)nn(C)c5C)c(Cl)ccc24)[C@H](C)[C@@H](C)N(c2cccc(C(=O)O)c2)C3=O)cc(C)c1Cl", "measured-number": 8.35}
{"compound": "Cc1cc(OCCCc2c3n(c4c(-c5c(C)nn(C)c5C)c(Cl)ccc24)[C@H](C)CN(c2coc4ccccc24)C3=O)cc(C)c1Cl (single isomer, unassigned) [Example 246]", "measured-number": 8.07}
{"compound": "Cc1cc(OCCCc2c3n(c4c(-c5c(C)nn(C)c5C)c(Cl)ccc24)[C@H](C)CN(c2cccc4c2C(=O)CC4)C3=O)cc(C)c1Cl", "measured-number": 8.44}

Param item: Cc1cc(OCCCc2c3n(c4c(-c5c(C)nn(C)c5C)c(Cl)ccc24)[C@H](C)CN(c2cn(C)c4ccc(C(F)(F)F)cc24)C3=O)cc(C)c1Cl (single isomer, unassigned) [Example 193] ; param system: Mcl-1 (Homo sapiens (Human), UniProt Q07820); output pKi: 8.41

The compound Cc1cc(OCCCc2c3n(c4c(-c5c(C)nn(C)c5C)c(Cl)ccc24)[C@H](C)CN(c2cn(C)c4cc(F)c(C(=O)O)cc24)C3=O)cc(C)c1Cl [Example 348] , tested on Mcl-1 (Homo sapiens (Human), UniProt Q07820), showed pKi of 8.74

Entry Cc1cc(OCCCc2c3n(c4c(-c5c(C)nn(C)c5C)c(Cl)ccc24)[C@H](C)CN(c2cn(C)c4ccc(C(=O)N(C)C)cc24)C3=O)cc(C)c1Cl , tested on Mcl-1 (Homo sapiens (Human), UniProt Q07820), has a reported pKi of 7.82

---

Listed compounds paired with reported GI50
Test system: H929 human cancer cell lines
Experiment: Cellular viability / proliferation (Cell TiterGlo, 72 h)
Assay type: cell-based
Details: Homo sapiens, NCI-H929, 72 h, read-out: GI50 on cellular proliferation of H929 human cancer cell lines, H929 cells, 72 h, Cell TiterGlo, 10% FBS
Unit nM implied. Number only.

# count of solved cases: 5
{"compound": "Cc1cc(OCCCc2c3n(c4c(-c5c(C)cc(OCc6ccccn6)cc5C)c(Cl)ccc24)[C@H](C)CN(c2cn(C)c4ccc(C(=O)O)cc24)C3=O)cc(C)c1Cl [Example 497]", "system-under-test": "H929 human cancer cell lines", "GI50 / nM": 1700}
{"compound": "Cc1cc(OCCCc2c3n(c4c(-c5c(C)nn(C)c5C)c(Cl)ccc24)[C@H](C)CN(c2cn(C)c4ccc(-c5nnc6ccccn56)cc24)C3=O)cc(C)c1Cl [Example 675]", "system-under-test": "H929 human cancer cell lines", "GI50 / nM": 4800}
{"compound": "Cc1cc(OCCCc2c3n(c4c(-c5c(C)nn(C)c5C)c(Cl)ccc24)[C@H](C)CN(c2cn(CCN4CCCC4)c4ccc(-c5ncccn5)cc24)C3=O)cc(C)c1Cl [Example 567]", "system-under-test": "H929 human cancer cell lines", "GI50 / nM": 930}
{"compound": "CCn1cc(C(=O)O)c2c(N3C[C@@H](C)n4c(c(CCCOc5cc(C)c(Cl)c(C)c5)c5ccc(Cl)c(-c6c(C)nn(C)c6C)c54)C3=O)cccc21 [Example 173]", "system-under-test": "H929 human cancer cell lines", "GI50 / nM": 3300}
{"compound": "Cc1cc(OCCCc2c3n(c4c(-c5c(C)nn(C)c5C)c(Cl)ccc24)[C@H](C)CN(c2cccc4cc(C(=O)O)cnc24)C3=O)cc(C)c1Cl [Example 105]", "system-under-test": "H929 human cancer cell lines", "GI50 / nM": 270}

GI50 reading for COc1ccc(N2C[C@@H](C)n3c(c(CCCOc4cc(C)c(Cl)c(C)c4)c4ccc(Cl)c(-c5c(C)nn(C)c5C)c43)C2=O)c2c1cc(C(N)=O)n2C [Example 412] : 450

# GI50 of Cc1cc(OCCCc2c3n(c4c(-c5c(C)ncnc5C)c(Cl)ccc24)[C@H](C)CN(c2nn(C)c4cccc(C(=O)O)c24)C3=O)cc(C)c1Cl [Example 273] = 4100

// field: GI50; key: Cc1cc(OCCCc2c3n(c4c(-c5c(C)nn(C)c5C)c(Cl)ccc24)CCCN(c2cn(C)c4ccc(C(=O)O)cc24)C3=O)cc(C)c1Cl [Example 80] ; value = 250

// Cc1cc(OCCCc2c3n(c4c(-c5c(C)nn(C)c5C)c(Cl)ccc24)[C@H](C)CN(c2cn(C)c4c(C)c(C(=O)O)ccc24)C3=O)cc(C)c1Cl [Example 250] : GI50 value = 480

Form: compound = COc1ccc(N2C[C@@H](C)n3c(c(CCCOc4cc(C)c(Cl)c(C)c4)c4ccc(Cl)c(-c5c(C)n[nH]c5C)c43)C2=O)c2c1cc(C(=O)O)n2C [Example 727] ; GI50 = 500

Consider Cc1cc(OCCCc2c3n(c4c(-c5c(C)nn(C)c5C)c(Cl)ccc24)CCCN(c2cc(C(=O)O)c4ncn(C)c4c2)C3=O)cc(C)c1Cl [Example 7] . Its measured GI50 is 13000

GET /value?item= CC(=O)N1CCN(c2ccnc(Cn3c(C(=O)O)cc4cc(C)cc(N5C[C@@H](C)n6c(c(CCCOc7cc(C)c(Cl)c(C)c7)c7ccc(Cl)c(-c8c(C)nn(C)c8C)c76)C5=O)c43)c2)CC1 [Example 552] &field=GI50 returns 4600

Looking up Cc1cc(OCCCc2c3n(c4c(-c5c(C)nn(C)c5C)c(Cl)ccc24)[C@H](C)CN(c2cccc4c2cc(C(=O)O)n4C(C)C)C3=O)cc(C)c1Cl [Example 197] , I see its GI50 listed as 670

---

Measured pKi values are reported for all entries that follow.
Target: Mcl-1 (Homo sapiens (Human), UniProt Q07820)
Assay: TR-FRET binding assay, FITC-Bak peptide and MBP-tagged Mcl-1
Conditions: read-out: Ki for Inhibition of Mcl-1 by TR-FRET assay
The scale used: pKi is minus the common logarithm of the concentration in molar units.

{"chemical-structure": "COCCn1cc(C(=O)O)c2cc(OCCN3CCN(C)CC3)cc(N3C[C@@H](C)n4c(c(CCCOc5cc(C)c(Cl)c(C)c5)c5ccc(Cl)c(-c6c(C)nn(C)c6C)c54)C3=O)c21", "reported-endpoint": "pKi", "measured-number": 9.25}
{"chemical-structure": "Cc1cc(OCCCc2c3n(c4c(-c5c(C)nn(C)c5C)c(Cl)ccc24)[C@H](C)CN(c2cn(C)c4ccc(-c5nc6c(C)cccn6n5)cc24)C3=O)cc(C)c1Cl", "reported-endpoint": "pKi", "measured-number": 8.74}
{"chemical-structure": "COc1ccc(N2C[C@@H](C)n3c(c(CCCOc4cc(C)c(Cl)c(C)c4)c4ccc(Cl)c(-c5c(C)nn(C)c5C)c43)C2=O)c2c1cc(C(=O)O)n2Cc1cc(C)ccn1", "reported-endpoint": "pKi", "measured-number": 9.55}

Looking up Cc1cc(OCCCc2c3n(c4c(-c5c(C)nn(C)c5C)c(Cl)ccc24)[C@H](C)CN(c2cn(CCN4CCCC4)c4ccc(-c5ncn(C)n5)cc24)C3=O)cc(C)c1Cl , I found its pKi recorded as 8.59

The molecule Cc1cc(OCCCc2c3n(c4c(-c5c(C)nn(C)c5C)c(Cl)ccc24)[C@H](C)CN(c2cn(CCN4CCN(C)CC4)c4ccc(-c5ncccn5)cc24)C3=O)cc(C)c1Cl showed pKi equal to 8.74

Item: COCCn1cc(C(=O)O)c2cc(OCCN(C)C)cc(N3C[C@@H](C)n4c(c(CCCOc5cc(C)c(Cl)c(C)c5)c5ccc(Cl)c(-c6c(C)nn(C)c6C)c54)C3=O)c21 | pKi: 9.49

Recorded values, source patent US11596639B2.
